Experiment: A quantitative high throughput screen for small molecules that induce DNA re-replication in MCF 10a normal breast cells. Also: nearly all actives have a fitted effect of over 50% in size.
Details: MCF 10A DNA re-replication, Hoechst nuclear intensity, 48 h; series mostly up to 46.1 µM
Text: H Molecular Libraries Probe Production Network [MLPCN] NIH Chemical Genomics Center [NCGC] Assay Provider: Melvin DePamphilis, NICHD, NIH Eukaryotic cells normally restrict genome duplication to once per cell division. […] To identify compounds that induce re-replication in normal cells, an image-based assay was used to measure DNA content of nuclei, as detected by the fluorescent DNA binding dye, Hoechst. […]
The campaign covered roughly 350,000 compounds. About 9,900 (2.8%) were called active. Inconclusive results (about 15%) are left out. Calls follow the shape of the dose curve; as a rule, active = well fitted activation curve with a large enough effect; inconclusive = small, poorly fitted or top-dose-only effect; inactive = no such curve, though single readings can be large or run the other way. This excerpt belongs to a sample that is enriched for actives.
Give your call using only these classes: y for active, n for inactive

Completed entries (count: 5):
COc1ccc(S(=O)(=O)N2CCCCC2)cc1NC(=O)COc1ccccc1 n
COC(=O)C1CCN(C(=O)COC(=O)c2cc(S(=O)(=O)N3CCOCC3)ccc2C)CC1 n
COC(=O)[C@]1(Cc2ccccc2)N[C@H](CN(C)S(=O)(=O)c2ccc(OC(F)(F)F)cc2)[C@@H]2C(=O)N(Cc3ccccc3)C(=O)[C@@H]21 n
Cc1cccc(N2O[C@H]3C=CC2CCCC3)n1 n
COc1ccc(/C=C/C(=O)OCC(=O)Nc2cccc(Oc3ccccc3)c2)c(OC)c1 n

Outcome? `CC[C@@H](C)[C@@H]1CN([C@@H](C)CN2CCC[C@H]2CN2C(N)=NC[C@H]2C(C)C)C(=N)N1CCc1ccc(Cl)c(Cl)c1` n

Outcome? `COc1ccc(OC)c(/C=C/C(=O)OCC(=O)Nc2ccc3c(c2)OCCO3)c1` y

Outcome? `COc1cccc(NC(=O)CN(C)C(=O)/C=C/c2cc(OC)ccc2OC)c1` n

Outcome? `COc1ccc(NS(=O)(=O)c2cc(NC(=O)COc3ccccc3F)ccc2OC)cc1` n
